Values from ChEMBL document CHEMBL1201862

Please go through the items and note down their GI50.
- Tested on: MDA-MB-231
- testProtocol: NCI tumour cell line growth inhibition, 48 h
Calls of active or inactive are those of the source. Rule as the data show it: active = GI50 up to about 1.1 µM and inactive = higher.

Prompt: Sample CCOC(=O)/C(=N\OC)C(O)C(F)(F)F (stereo not drawn) — what was its GI50?
Response: > 100 µM (inactive)

Prompt: Requested read-out: GI50. Entry: Cc1cc2oc(=N)c(C#N)c(C)c2cc1C
Response: > 100 µM (inactive)

Prompt: What does the record list as GI50 for Oc1nc2ccccc2c(O)c1Cc1ccccc1 ?
Response: > 100 µM (inactive)

Prompt: For the molecule shown here, CC(C)Oc1ccc(CNC2=NCCO2)c2ccccc12 , give the reported GI50.
Response: 14.5 µM (inactive)

Prompt: Look at this molecule and give its reported GI50. CCOC(=O)CC/C(C)=N\n1c(Cc2ccc(Cl)cc2)n[nH]c1=O
Response: > 100 µM (inactive)

Prompt: Name the recorded GI50 for COC(=O)C1=C(O)C(C(=O)OC)[C@]2(O)[C@H](C(=O)OC)[C@H]1C[C@@H](c1ccccc1OC)[C@H]2C(=O)OC (stereo partly drawn) .
Response: 9.55 µM (inactive)

Prompt: Requested read-out: GI50. Entry: CN1CN(c2ccccc2)C2(CCN(CCC3COc4ccccc4O3)CC2)C1=O (stereo not drawn)
Response: 31.9 µM (inactive)

Prompt: What does the record list as GI50 for C#CCNC(CSSCC(N)C(=O)O)C(=O)O (stereo not drawn) ?
Response: > 100 µM (inactive)

Prompt: GI50 lookup needed for O=C(O)C1=C/C(=C(/c2ccccc2)c2cc(C(=O)O)c(O)c3ccccc23)c2ccccc2C1=O , thanks.
Response: > 100 µM (inactive)

Prompt: Report GI50 for CC(=O)NCCc1c(-c2[nH]c3ccccc3c2CCNC(C)=O)[nH]c2ccccc12 please.
Response: 82.4 µM (inactive)

Prompt: For CCOC(=O)C1=C(C)N(c2ccc(Cl)cc2)C2(O)C=CC(O)=C3C(=O)c4ccccc4C(=O)C312 (stereo not drawn) , what is its reported GI50?
Response: 10.9 µM (inactive)

Prompt: Data request, read-out GI50, for O=C(OCc1ccccc1)N1c2cc([N+](=O)[O-])ccc2C(=O)N2CCC[C@H]2C1O (stereo partly drawn)
Response: > 100 µM (inactive)

Prompt: Given the entry COc1ccc2oc(=N)c(C(N)=O)cc2c1 , report its measured GI50.
Response: 66.8 µM (inactive)
